target: T1, ZIKV (prM80E) with a C-terminal myc-myc-hexahistidine tag (Zika virus, UniProt A0A024B7W1 104-694); test: SPR, mAb captured, 25C
T1 construct: also called ZIKV (prM80E)-mmH; ZIKV-mmH
attribute measured: koff (s⁻¹)
// return numeric value only (unit: s⁻¹, not printed)

Task item: Please give the measured koff for this binder: H4H25566P (antibody, V domains shown) VH: QVQLQESGPGLVKPSQTLSLTCTVSGGSISSGGYYWSWIRQHPGKGLEWIGYIYYSGSTYYNPSLKSRITISIDTSKNQFSLKLTSVTAADTAVYYCARGQQLLSFDYWGQGTLVTVSS VL: DIQMTQSPSSVSASVGDRVTITCRASQGISRWLAWYQLKPGKPPTPLIYAASSLQSGAPSRFSGRGSGTDFTLTISSLQPEDFATYYCQQANSFPYTFGQGTKLEIK
Reply: 0.0163

Task item: Same thing, different binder: H4H25630P (antibody, V domains shown) VH: QVQLVQSGAEVKRPGASVKVSCKASDYTFTDYGISWVRQAPGQGLEWMGWFNTYNGNTNYAQKFQGRITMTTDTSTSTAYMELRSLRSDDTAIYYCARDWGLHYFENWGQGTLVTVSS VL: EIVLTQSPGTLSLSPGERATLSCRASQSVRNSYLAWYQQKPGQAPRLLIYGASSRDTGIPDRFSGSGSGTDFTLTISRLEPEDFAVYYCQQYGRSPWTFGQGTKVEIK
Reply: 0.00035

Task item: Same thing, different binder: H4H25710N (antibody, V domains shown) VH: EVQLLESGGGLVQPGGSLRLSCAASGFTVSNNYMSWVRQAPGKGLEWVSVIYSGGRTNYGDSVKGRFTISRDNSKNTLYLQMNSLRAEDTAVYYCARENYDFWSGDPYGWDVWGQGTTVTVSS VL: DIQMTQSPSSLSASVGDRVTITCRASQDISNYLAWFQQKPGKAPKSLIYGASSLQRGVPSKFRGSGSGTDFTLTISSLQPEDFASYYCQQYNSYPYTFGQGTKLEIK
Reply: 0.00209
